# targetSystem: human CD33 G218A (human, UniProt P20138 18-364)
# Sequence (P20138 18-364 G218A limits assumed): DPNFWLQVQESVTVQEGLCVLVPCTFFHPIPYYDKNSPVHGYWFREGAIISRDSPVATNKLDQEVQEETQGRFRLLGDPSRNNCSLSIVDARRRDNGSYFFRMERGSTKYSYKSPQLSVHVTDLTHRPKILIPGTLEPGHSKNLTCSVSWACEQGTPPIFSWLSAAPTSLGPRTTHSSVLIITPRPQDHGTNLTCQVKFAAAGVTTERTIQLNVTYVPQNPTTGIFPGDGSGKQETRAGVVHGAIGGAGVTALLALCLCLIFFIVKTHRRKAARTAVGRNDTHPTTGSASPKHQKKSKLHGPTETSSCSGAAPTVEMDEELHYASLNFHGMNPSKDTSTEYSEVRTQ
# assayDetails: alanine scan, flow cytometry, HEK293-T;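 also: antibody binding to each alanine-substituted CD33 mutant expressed transiently in HEK293-T, read as fluorescence minus background, mean of duplicates, relative to wild-type CD33 set as 100%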
Recorded Mean % WT Binding by entry
Report the figure in % without appending any unit label.

A selection of reference data follows.
Lookup result for Refmab #2 (antibody, V domains shown, In the alanine scan antibodies were used as IgG or Fab) VH: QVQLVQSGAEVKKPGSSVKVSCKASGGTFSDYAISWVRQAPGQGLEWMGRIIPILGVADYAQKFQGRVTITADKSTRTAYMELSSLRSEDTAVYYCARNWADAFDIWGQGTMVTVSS VL: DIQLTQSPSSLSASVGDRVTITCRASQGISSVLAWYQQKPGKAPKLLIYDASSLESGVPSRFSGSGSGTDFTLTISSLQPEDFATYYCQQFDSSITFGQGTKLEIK ; measured Mean % WT Binding: 124

Lookup result for Refmab #3 (antibody, V domains shown, In the alanine scan antibodies were used as IgG or Fab) VH: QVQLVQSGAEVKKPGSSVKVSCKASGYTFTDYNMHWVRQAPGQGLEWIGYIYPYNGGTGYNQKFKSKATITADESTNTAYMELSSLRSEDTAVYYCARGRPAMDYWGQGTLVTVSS VL: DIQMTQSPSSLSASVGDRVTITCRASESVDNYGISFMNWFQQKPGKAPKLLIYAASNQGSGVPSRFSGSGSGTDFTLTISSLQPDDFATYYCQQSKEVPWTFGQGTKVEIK ; measured Mean % WT Binding: 143

Lookup result for Refmab #1 (antibody, V domains shown, In the alanine scan antibodies were used as IgG or Fab; also called hP67.6) VH: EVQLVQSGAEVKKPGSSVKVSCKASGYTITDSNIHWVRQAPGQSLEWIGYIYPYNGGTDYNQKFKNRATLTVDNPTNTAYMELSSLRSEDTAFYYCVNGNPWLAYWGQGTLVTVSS VL: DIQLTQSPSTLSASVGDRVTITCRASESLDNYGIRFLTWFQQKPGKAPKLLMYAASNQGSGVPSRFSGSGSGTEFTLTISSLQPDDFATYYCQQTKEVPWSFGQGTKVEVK ; measured Mean % WT Binding: 79.2

Proceed to the following item.
Lookup result for Refmab #4 (antibody, V domains shown, In the alanine scan antibodies were used as IgG or Fab) VH: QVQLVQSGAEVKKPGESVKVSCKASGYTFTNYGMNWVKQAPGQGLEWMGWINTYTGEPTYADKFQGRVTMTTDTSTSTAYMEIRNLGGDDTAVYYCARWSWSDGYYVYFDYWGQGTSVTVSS VL: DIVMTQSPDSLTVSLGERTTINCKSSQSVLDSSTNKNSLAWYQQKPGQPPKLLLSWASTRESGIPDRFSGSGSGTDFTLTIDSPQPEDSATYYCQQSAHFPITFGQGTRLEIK ; measured Mean % WT Binding: 102
